TEST_SYSTEM: BACH1 DBD of BACH1-sMafGχ;sMafG DBD of chimeras (Homo sapiens?;Homo sapiens?, UniProt O14867;O15525 511-627;1-162, |)
PROTOCOL_TEXT: EMSA; apparent; TEV and 3C cleaved; 150 mM NaCl, 50 mM HEPES pH 7.9, 10% glycerol, 1 mM TCEP, 1 mM DTT, 2 mM MgCl2; 3 nM DNA; TEV and 3C 50 ug/mL each, 4 h 25 °C; competition then O/N 4 °C; gels 4 °C in 1X TBE
RUN_CONDITIONS: protein: recombinant;recombinant; tags: 3C/TEV-cleavable linker with His tags to sMafG;fused C-terminal of the linker; copies: 1;1; label: 5' fluorescein on forward strand; blunt
MEASURE_NAME: pKd
On this scale, pKd is minus log10 of a concentration expressed in M (mol/L).

# input Recorded pKd of HMOX1 CsMBE 30-mer (dsDNA) DNA 1: CTCGGGACCGTGACTCAGCAGGAAAAACAC DNA 2: GTGTTTTTCCTGCTGAGTCACGGTCCCGAG , please.
# output 7.31

Source: paper PMC12561426
